- Tested on: Staphylococcus aureus
- measurement.description: In vitro antibacterial activity against […] aureus IID 803 -
- Type: functional
parameter: MIC (µg/mL)
Numbers only; they are read as µg/mL.

Prompt: GET /values?readout=MIC&system=Staphylococcus aureus&item= CCn1cc(C(=O)O)c(=O)c2cc(F)c(N3CCN(O)CC3)cc21
Completion: 1.56

Prompt: Next up: O=C(O)c1cn(C2CC2)c2cc(N3CCN(O)CC3)c(F)cc2c1=O
Completion: 0.78

Prompt: Next up: CCn1cc(C(=O)O)c(=O)c2cc(F)c(N3CCNCC3)cc21 [NORFLOXACIN]
Completion: 1.56

Prompt: Next up: O=C(O)c1cn(C2CC2)c2cc(N3CCNCC3)c(F)cc2c1=O [CIPROFLOXACIN]
Completion: 0.78

* * *

- measurement.description: Acute toxicity on oral administration in mice
- Format: organism-based
- study.conditions: mouse, in vivo
Consider the following molecules; for each one, report its LD50.

Prompt: Endpoint output: LD50 of CCn1cc(C(=O)O)c(=O)c2cc(F)c(N3CCN(O)CC3)cc21 . Value?
Completion: > 4000 mg/kg

Prompt: Next up: CCn1cc(C(=O)O)c(=O)c2cc(F)c(N3CCNCC3)cc21 [NORFLOXACIN]
Completion: > 4000 mg/kg

Prompt: Next up: O=C(O)c1cn(C2CC2)c2cc(N3CCN(O)CC3)c(F)cc2c1=O
Completion: > 4000 mg/kg

* * *

- measurement.description: Acute toxicity on intravenous injection in mice
- Format: organism-based
- study.conditions: mouse, in vivo
parameter: LD50 (mg/kg)
Numbers only; they are read as mg/kg.

Prompt: Endpoint output: LD50 of CCn1cc(C(=O)O)c(=O)c2cc(F)c(N3CCNCC3)cc21 [NORFLOXACIN] . Value?
Completion: 314

* * *

Consider the following compounds; for each one, report its MIC.
- System: Staphylococcus epidermidis
- measurement.description: In vitro antibacterial activity against Staphylococcus epidermidis IAM 1296
- Assay type: functional
Numbers only; they are read as µg/mL.

Prompt: Endpoint output: MIC of O=C(O)c1cn(C2CC2)c2cc(N3CCNCC3)c(F)cc2c1=O . Value?
Completion: 1.56

Prompt: Next up: CCn1cc(C(=O)O)c(=O)c2cc(F)c(N3CCNCC3)cc21
Completion: 3.13

Prompt: Next up: O=C(O)c1cn(C2CC2)c2cc(N3CCN(O)CC3)c(F)cc2c1=O
Completion: 1.56

Prompt: Next up: CCn1cc(C(=O)O)c(=O)c2cc(F)c(N3CCN(O)CC3)cc21
Completion: 6.25

Reference for the values: ChEMBL document CHEMBL1124996
